# Experimental target: HA of H7N3 A/NIBRG/60 (A/mallard/NL/12/00) (influenza A virus)
# Procedure text: cell-based or functional assay
# VNA titer per entry
The figure you give is taken to be in nM; do not add the unit.

SD1047 (VHH) VHH: EVQLVESGGGLVQAGGSLRISCAASGRTYAMAWFRQAPGKEREFVAHINALGTRTYYSDSVKDRFTISRDNAKNTEYLQMNSLKPEDTAVYYCVAGGQWRAAPVAAAESYDFWGQGTQVTVSS = 510

Let us move to another entry and its VNA titer.
Exercise: Item under review: SD1017 (VHH) VHH: EVQLVESGGGLVQAGGSLRLSCAASGRTYAMAWFRQAPGKEREFVAHINALGTRAYYSDSVEGRFTISRDNAKNTGYLQMNSLEPEDTAVYVCAAGGQWRAAPVADAAQYDFWGQGTQVTVSS . Reported VNA titer?
Key: 34.7
